- testedOn: WT/R232 STING protein (Homo sapiens, UniProt Q86WV6, H232R)
- Sequence (Q86WV6 whole entry H232R): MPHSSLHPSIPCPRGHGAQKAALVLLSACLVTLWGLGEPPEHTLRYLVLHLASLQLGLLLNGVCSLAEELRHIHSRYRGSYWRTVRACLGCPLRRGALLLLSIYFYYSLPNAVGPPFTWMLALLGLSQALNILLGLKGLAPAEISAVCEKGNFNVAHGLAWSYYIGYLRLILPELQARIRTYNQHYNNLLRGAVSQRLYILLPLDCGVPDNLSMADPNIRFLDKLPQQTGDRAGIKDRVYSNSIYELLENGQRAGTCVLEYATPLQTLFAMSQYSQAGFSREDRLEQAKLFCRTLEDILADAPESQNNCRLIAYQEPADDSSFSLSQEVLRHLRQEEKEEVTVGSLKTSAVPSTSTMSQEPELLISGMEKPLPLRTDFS
- methodNotes: Luciferase reporter assay in HEK293T-hSTING-Luciferase cells (R232)
- experimentalContext: 20 hr stimulation, EC50 range
pEC50: −log10 of the molar value.
measure: pEC50

Worked cases, pEC50 given:
{"compound": "CC1(CC#N)C(=O)N(Cc2cc(F)cc(F)c2)c2cc(C(=O)NCc3c(F)cc(F)cc3F)ccc21 (centres unmarked) [Example 178]", "testedOn": "WT/R232 STING protein (Homo sapiens, UniProt Q86WV6, H232R)", "pEC50": "5.00 to 6.00"}
{"compound": "COc1cccc(F)c1CN1C(=O)C(C)(C)c2ccc(C(=O)NCc3c(F)cc(F)cc3F)cc21 [Example 102]", "testedOn": "WT/R232 STING protein (Homo sapiens, UniProt Q86WV6, H232R)", "pEC50": "≥ 6.00"}
{"compound": "Cc1nc(CN2C(=O)C(C)(C)c3ccc(C(=O)NCc4c(F)cc(F)cc4F)cc32)co1 [Example 83]", "testedOn": "WT/R232 STING protein (Homo sapiens, UniProt Q86WV6, H232R)", "pEC50": "< 5.00"}
{"compound": "CC1(C)C(=O)N(Cc2ccc(F)cc2)c2cc(C(=O)NCc3ccco3)ccc21 [Example 41]", "testedOn": "WT/R232 STING protein (Homo sapiens, UniProt Q86WV6, H232R)", "pEC50": "5.00 to 6.00"}
{"compound": "CC1(O)C(=O)N(Cc2ccccc2F)c2cc(C(=O)NCc3ccco3)ccc21 (centres unmarked) [Example 149]", "testedOn": "WT/R232 STING protein (Homo sapiens, UniProt Q86WV6, H232R)", "pEC50": "< 5.00"}

Query: Looking for the measured pEC50 of CC1(C)C(=O)N(Cc2c(F)cccc2Cl)c2cc(C(=O)NCc3ccc4occc4c3)ccc21 [Example 71] , can you help?
Response: 5.00 to 6.00

Query: Looking for the measured pEC50 of O=C(NCc1ccco1)c1ccc2oc(=O)n(Cc3ccccc3F)c2c1 [Example 200] , can you help?
Response: < 5.00

Query: Looking for the measured pEC50 of CC1(C)C(=O)N(Cc2ccncc2)c2cc(C(=O)NCc3c(F)cc(F)cc3F)ccc21 [Example 22] , can you help?
Response: 5.00 to 6.00
